- Experimental System: Protein deacetylase HDAC6 (Homo sapiens) (UniProt Q9UBN7)
- Sequence (whole entry): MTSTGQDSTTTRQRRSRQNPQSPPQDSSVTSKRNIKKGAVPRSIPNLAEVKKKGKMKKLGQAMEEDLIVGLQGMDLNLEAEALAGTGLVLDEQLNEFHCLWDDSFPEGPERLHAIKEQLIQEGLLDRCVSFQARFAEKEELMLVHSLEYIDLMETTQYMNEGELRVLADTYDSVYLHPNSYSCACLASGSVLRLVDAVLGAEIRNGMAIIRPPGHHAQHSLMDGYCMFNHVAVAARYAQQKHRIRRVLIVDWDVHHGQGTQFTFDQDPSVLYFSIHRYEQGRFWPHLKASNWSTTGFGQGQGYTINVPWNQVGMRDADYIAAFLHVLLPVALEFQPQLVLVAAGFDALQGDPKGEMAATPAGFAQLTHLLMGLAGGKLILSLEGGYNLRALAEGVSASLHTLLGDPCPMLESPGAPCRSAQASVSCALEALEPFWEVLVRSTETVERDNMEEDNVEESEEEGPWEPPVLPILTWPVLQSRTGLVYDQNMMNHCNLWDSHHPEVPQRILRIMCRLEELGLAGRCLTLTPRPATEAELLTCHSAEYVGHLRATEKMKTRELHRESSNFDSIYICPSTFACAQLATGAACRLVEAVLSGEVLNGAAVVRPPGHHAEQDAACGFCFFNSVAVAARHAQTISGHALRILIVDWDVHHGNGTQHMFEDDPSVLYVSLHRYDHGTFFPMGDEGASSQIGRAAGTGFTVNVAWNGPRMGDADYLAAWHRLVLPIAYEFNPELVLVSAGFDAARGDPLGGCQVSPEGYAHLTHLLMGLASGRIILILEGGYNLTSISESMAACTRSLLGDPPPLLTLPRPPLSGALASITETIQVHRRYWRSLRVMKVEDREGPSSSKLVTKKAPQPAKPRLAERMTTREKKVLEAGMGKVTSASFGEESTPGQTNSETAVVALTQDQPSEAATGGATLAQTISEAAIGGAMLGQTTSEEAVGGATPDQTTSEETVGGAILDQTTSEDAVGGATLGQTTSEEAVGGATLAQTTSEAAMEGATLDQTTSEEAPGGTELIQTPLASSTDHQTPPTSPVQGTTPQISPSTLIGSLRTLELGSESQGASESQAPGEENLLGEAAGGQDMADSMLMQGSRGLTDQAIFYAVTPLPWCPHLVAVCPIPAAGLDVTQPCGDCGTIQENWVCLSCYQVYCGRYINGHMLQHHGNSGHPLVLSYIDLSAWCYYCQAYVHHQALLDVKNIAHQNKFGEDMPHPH
- Assay Summary: Inhibition of HDAC6 in human A549 cells assessed as increase in acetylated tubulin levels at 1 to 10 uM after 24 hrs by Western blot analysis
- Format: cell-based
Activity calls are given as the source filed them. The calls are words filed in the database; no cut-off is given here.
Outcome codes: active, inactive

INSERT INTO assay_data (compound_structure_string, group) VALUES
  ('CCc1c2c(nc3ccc(O)cc13)-c1cc3c(c(=O)n1C2)COC(=O)[C@@]3(CC)OC(=O)CNC(=O)CCCCCCC(=O)O', 'active'),
  ('CCc1c2c(nc3ccc(O)cc13)-c1cc3c(c(=O)n1C2)COC(=O)[C@@]3(CC)OC(=O)CCCCCCC(=O)NO', 'inactive'),
  ('CCc1c2c(nc3ccc(O)cc13)-c1cc3c(c(=O)n1C2)COC(=O)[C@@]3(CC)OC(=O)CCCCCC(=O)NO', 'inactive'),
  ('CCc1c2c(nc3ccc(O)cc13)-c1cc3c(c(=O)n1C2)COC(=O)[C@@]3(CC)OC(=O)CNC(=O)CCCCCCC(=O)NO', 'inactive'),
  ('CCc1c2c(nc3ccc(O)cc13)-c1cc3c(c(=O)n1C2)COC(=O)[C@@]3(CC)OC(=O)CCCCCCC(=O)O', 'active');

* * *

- Experimental System: Protein deacetylase HDAC6 (Homo sapiens, UniProt Q9UBN7)
- Sequence (Q9UBN7 whole entry): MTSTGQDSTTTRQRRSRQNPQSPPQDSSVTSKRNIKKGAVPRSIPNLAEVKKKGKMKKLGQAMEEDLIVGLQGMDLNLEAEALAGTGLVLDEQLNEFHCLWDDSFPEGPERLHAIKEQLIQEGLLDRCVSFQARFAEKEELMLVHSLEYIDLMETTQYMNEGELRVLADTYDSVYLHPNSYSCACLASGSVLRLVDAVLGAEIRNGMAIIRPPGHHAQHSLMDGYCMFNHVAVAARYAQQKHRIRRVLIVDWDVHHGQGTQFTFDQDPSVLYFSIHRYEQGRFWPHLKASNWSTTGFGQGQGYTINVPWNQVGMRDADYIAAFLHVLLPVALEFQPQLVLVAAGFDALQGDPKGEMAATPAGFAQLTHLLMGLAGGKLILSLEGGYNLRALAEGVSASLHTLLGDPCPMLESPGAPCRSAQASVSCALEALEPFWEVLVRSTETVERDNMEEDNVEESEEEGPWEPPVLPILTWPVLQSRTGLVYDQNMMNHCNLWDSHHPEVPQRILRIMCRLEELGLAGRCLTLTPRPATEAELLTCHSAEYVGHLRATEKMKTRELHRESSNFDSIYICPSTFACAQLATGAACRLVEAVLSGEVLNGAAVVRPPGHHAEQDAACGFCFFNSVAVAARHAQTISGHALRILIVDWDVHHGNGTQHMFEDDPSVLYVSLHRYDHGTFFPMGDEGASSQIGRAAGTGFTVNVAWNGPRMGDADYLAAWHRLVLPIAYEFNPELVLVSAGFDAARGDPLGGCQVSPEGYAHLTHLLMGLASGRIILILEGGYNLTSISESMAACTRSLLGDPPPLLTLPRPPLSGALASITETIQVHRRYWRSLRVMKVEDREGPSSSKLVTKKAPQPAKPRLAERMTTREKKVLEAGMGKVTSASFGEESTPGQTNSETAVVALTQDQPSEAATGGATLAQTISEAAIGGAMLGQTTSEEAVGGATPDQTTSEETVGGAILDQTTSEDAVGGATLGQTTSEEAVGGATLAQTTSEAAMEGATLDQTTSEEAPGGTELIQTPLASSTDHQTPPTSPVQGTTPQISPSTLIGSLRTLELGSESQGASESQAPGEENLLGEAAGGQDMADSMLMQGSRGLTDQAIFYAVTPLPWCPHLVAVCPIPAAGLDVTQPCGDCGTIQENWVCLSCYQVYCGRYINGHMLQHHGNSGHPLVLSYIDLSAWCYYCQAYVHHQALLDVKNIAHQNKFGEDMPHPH
- Assay Summary: Inhibition of recombinant human HDAC6 expressed in baculovirus infected High5 insect cells using Boc-Lys (epsilon-acetyl)-AMC as substrate after 3 hrs by fluorescence assay
pIC50: −log10 of the molar value.
Documented pIC50 across a set of compounds
Assay Endpoint: pIC50

INSERT INTO results (compound_structure_string, recorded_measurement) VALUES
  ('CCc1c2c(nc3ccc(OC(=O)N4CCN(C(=O)CCCCCCC(=O)NO)CC4)cc13)-c1cc3c(c(=O)n1C2)COC(=O)[C@]3(O)CC', 4.91),
  ('CCc1c2c(nc3ccc(O)cc13)-c1cc3c(c(=O)n1C2)COC(=O)[C@@]3(CC)OC(=O)CCCCCCCC(=O)NO', 6.68),
  ('CCc1c2c(nc3ccc(OC(=O)N4CCN(C(=O)CCCCCCCCC(=O)NO)CC4)cc13)-c1cc3c(c(=O)n1C2)COC(=O)[C@]3(O)CC', 5.15),
  ('CCc1c2c(nc3ccc(O)cc13)-c1cc3c(c(=O)n1C2)COC(=O)[C@@]3(CC)OC(=O)CCCCCCC(=O)NO', 6.60);

* * *

- Experimental System: Protein deacetylase HDAC6 (Homo sapiens, UniProt Q9UBN7)
- Sequence (Q9UBN7 whole entry): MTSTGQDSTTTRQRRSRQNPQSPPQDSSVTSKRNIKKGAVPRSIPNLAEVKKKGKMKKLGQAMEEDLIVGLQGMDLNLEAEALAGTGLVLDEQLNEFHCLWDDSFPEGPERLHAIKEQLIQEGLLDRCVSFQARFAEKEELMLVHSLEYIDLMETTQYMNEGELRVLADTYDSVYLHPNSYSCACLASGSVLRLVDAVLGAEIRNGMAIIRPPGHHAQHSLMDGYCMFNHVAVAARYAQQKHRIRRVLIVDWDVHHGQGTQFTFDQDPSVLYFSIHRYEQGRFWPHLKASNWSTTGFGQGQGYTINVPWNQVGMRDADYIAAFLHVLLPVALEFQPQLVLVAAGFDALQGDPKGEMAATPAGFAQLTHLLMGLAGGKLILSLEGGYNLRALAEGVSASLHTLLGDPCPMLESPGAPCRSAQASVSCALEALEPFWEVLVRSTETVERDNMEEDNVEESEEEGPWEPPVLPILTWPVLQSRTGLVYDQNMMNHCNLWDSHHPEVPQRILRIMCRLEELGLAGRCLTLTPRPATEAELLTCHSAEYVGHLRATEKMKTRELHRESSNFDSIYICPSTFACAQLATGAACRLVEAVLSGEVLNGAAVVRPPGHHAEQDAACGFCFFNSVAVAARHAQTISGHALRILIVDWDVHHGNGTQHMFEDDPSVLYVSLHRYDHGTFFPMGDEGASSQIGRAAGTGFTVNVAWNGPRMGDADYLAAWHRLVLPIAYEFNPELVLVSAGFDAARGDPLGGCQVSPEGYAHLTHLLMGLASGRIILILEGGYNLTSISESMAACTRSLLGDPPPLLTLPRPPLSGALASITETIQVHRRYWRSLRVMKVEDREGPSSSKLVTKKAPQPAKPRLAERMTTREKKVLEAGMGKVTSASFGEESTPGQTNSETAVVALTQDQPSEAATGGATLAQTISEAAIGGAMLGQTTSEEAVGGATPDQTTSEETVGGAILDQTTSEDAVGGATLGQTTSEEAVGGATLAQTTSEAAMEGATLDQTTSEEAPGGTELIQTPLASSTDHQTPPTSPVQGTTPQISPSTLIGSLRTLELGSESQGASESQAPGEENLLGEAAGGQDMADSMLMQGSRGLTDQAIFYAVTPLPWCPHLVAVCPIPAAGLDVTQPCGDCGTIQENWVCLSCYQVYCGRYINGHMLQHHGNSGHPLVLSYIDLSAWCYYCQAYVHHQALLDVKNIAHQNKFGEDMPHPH
- Assay Summary: Inhibition of recombinant human HDAC6 expressed in baculovirus infected High5 insect cells using Boc-Lys (epsilon-acetyl)-AMC as substrate after 3 hrs by fluorescence assay
pIC50: −log10 of the molar value.
Documented pIC50 across a set of compounds
Assay Endpoint: pIC50

INSERT INTO assay_data (compound_structure_string, recorded_measurement) VALUES
  ('CCc1c2c(nc3ccc(O)cc13)-c1cc3c(c(=O)n1C2)COC(=O)[C@@]3(CC)OC(=O)CNC(=O)CCCCCCC(=O)O', 5.06),
  ('CCc1c2c(nc3ccc(OC(=O)N4CCN(C(=O)CCCCCCCC(=O)NO)CC4)cc13)-c1cc3c(c(=O)n1C2)COC(=O)[C@]3(O)CC', 5.04),
  ('CCc1c2c(nc3ccc(O)cc13)-c1cc3c(c(=O)n1C2)COC(=O)[C@@]3(CC)OC(=O)CCCCCCCCC(=O)NO', 6.49);

FYI, the data here is from ChEMBL document CHEMBL4229532.
